# target system: MRGPRX4 (Homo sapiens)
# Sequence (Q96LA9 whole entry): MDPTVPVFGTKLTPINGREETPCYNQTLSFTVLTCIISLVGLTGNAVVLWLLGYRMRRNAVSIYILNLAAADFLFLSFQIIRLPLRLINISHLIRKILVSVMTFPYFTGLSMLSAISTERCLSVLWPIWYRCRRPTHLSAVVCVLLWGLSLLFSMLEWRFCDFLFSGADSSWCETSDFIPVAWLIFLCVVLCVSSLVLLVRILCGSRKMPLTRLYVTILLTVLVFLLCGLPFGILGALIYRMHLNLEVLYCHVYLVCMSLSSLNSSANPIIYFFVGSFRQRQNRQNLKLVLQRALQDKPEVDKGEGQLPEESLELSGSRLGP
# experiment summary: MRGPRX4 activation, Fluo-8 Ca2+ FLIPR assay in HEK293T cells stably expressing MRGPRX4
# Assay type: cell-based
# conditions: Conc. (Log[M]) −4
Each entry below carries its reported MRGPRX4 activation, fluorescence change (dF/F0), Average.
// keep it numeric: no unit symbol after the value

>>> endpoint_result("C[C@H](CC(=O)O)[C@H]1CC[C@H]2[C@@H]3CC[C@@H]4C[C@H](O)CC[C@]4(C)[C@H]3C[C@H](O)[C@]12C")
0.329
>>> endpoint_result("CC[C@H]1[C@@H](OC(=O)c2cccc(I)c2)[C@H]2[C@@H]3[C@@H](O)C=C([C@H](C)CCC(=O)OC)[C@@]3(C)CC[C@@H]2[C@@]2(C)CCCC[C@@H]12")
0.041

Ask | Item C[C@H](CCCC(=O)O)[C@H]1CC[C@H]2[C@@H]3CC[C@@H]4C[C@H](O)CC[C@]4(C)[C@H]3C[C@H](O)[C@]12C has what recorded MRGPRX4 activation, fluorescence change (dF/F0), Average?
Reply | 0.242
